Target: Androgen receptor (AR) (Homo sapiens, UniProt P10275, T878A)
Construct: 5.5×10^5 LNCap cells were injected into each well of a 6-well plate; endogenous in cells; host or cells: LNCaP
Sequence (P10275 whole entry T878A): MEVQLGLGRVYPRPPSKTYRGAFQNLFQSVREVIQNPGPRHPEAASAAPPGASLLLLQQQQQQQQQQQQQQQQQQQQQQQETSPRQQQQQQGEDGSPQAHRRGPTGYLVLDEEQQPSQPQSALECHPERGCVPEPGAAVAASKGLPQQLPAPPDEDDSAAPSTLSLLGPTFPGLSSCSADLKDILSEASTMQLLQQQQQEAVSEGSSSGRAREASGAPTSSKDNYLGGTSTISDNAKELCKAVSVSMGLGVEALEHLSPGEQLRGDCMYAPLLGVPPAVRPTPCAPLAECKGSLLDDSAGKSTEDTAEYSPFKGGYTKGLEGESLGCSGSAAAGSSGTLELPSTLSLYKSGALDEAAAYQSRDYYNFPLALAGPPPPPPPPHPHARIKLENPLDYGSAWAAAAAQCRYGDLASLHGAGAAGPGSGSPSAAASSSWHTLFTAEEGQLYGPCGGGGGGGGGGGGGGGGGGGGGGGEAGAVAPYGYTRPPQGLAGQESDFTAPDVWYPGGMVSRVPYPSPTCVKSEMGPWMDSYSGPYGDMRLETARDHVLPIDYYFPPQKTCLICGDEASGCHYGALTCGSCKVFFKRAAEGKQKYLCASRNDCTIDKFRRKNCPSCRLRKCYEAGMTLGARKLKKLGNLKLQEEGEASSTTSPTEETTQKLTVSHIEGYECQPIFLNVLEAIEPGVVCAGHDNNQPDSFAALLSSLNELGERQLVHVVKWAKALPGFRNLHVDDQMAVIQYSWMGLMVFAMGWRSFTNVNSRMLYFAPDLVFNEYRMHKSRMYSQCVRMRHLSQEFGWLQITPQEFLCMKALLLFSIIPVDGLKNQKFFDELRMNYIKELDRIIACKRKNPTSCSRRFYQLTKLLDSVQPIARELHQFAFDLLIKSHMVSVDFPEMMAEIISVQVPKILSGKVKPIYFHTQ
Assay: Assessment of AR proteolytic activity (Western blotting of LNCap cell lysates)
Type: cell-based
Details: 24 hours of treatment, Western blotting quantified with Image J
parameter: Degradation (1 μM treated in LNCaP, % AR remaining)

Query block: Provide only the value of recorded Degradation (1 μM treated in LNCaP, % AR remaining) for CC1(C)[C@H](NC(=O)c2ccc(N3CCN(CCC4CCN(C(=O)C5CN(c6ccc7nnn(C8CCC(=O)NC8=O)c(=O)c7c6)C5)CC4)CC3)cc2)C(C)(C)[C@H]1Oc1ccc(C#N)c(Cl)c1 (stereo partly drawn)
Result block: 14%

Query block: Given N#Cc1ccc(OC2CCC(NC(=O)c3ccc(N4CCC(CN5CCN(c6ccc7c(=O)n(C8CCC(=O)NC8=O)nnc7c6)CC5)CC4)nc3)CC2)cc1Cl (stereo not drawn) , respond with its Degradation (1 μM treated in LNCaP, % AR remaining).
Result block: 13%

Query block: Look up Degradation (1 μM treated in LNCaP, % AR remaining) of CC1(C)[C@H](NC(=O)c2ccc(N3CCN(CCC4CCN(C(=O)COc5ccc6nnn(C7CCC(=O)NC7=O)c(=O)c6c5)CC4)CC3)cc2)C(C)(C)[C@H]1Oc1ccc(C#N)c(Cl)c1 (stereo partly drawn) and report it.
Result block: 13%

Query block: Answer with the recorded Degradation (1 μM treated in LNCaP, % AR remaining) of CC1(C)C(NC(=O)c2ccc(C#CC3CCN(CC4CN(c5ccc6nnn(C7CCC(=O)NC7=O)c(=O)c6c5)C4)CC3)nc2)C(C)(C)C1Oc1ccc(C#N)c(Cl)c1 (stereo not drawn) only.
Result block: 11%

Query block: Specify reported Degradation (1 μM treated in LNCaP, % AR remaining) for the compound shown: CC1(C)C(NC(=O)c2ccc(N3CCN(CC4(O)CCN(C(=O)CNc5ccc6nnn(C7CCC(=O)NC7=O)c(=O)c6c5)CC4)CC3)cc2)C(C)(C)C1Oc1ccc(C#N)c(Cl)c1 (stereo not drawn)
Result block: 5.8%

Query block: State its Degradation (1 μM treated in LNCaP, % AR remaining) for this compound: CC1(C)C(NC(=O)c2ccc(N3CCC(CCN4CCN(c5ccc6c(=O)n(C7CCC(=O)NC7=O)nnc6c5)CC4)CC3)nc2)C(C)(C)C1Oc1ccc(C#N)c(Cl)c1 (stereo not drawn)
Result block: 16%
